The measured values listed here are drawn from PubChem BioAssay (NCATS).

- experiment summary: qHTS of pediatric cancer cell lines to identify multiple opportunities for drug repurposing: Primary screen for BT-37 cells (AID 1347094)
- experimental parameters: BT-37 viability, CellTiter-Glo luminescence, 48 h; series mostly up to 57.3 µM
Results filed as inconclusive are left out. The source made the active and inactive calls. Calls follow the shape of the dose curve; as a rule, active = well fitted cell-killing curve with a large enough effect; inconclusive = small, poorly fitted or top-dose-only effect; inactive = flat fitted curve, though single readings scatter.
The categories you may choose from are active, inactive

| compound | classification |
| --- | --- |
| Cc1[nH]c(C=C2C(=O)Nc3ccccc32)c(C)c1CCC(=O)O | active |
| CCCNC(=O)[C@H]1O[C@H]1C(=O)N[C@H](C(=O)N1CCC[C@@H]1C(=O)OC)C(C)CC (some centres not stated) | active |
| CCCCCCCCCCCCc1ccc(S(=O)(=O)Nc2nncs2)cc1 | inactive |

## Input Lab log entry: `C#Cc1cccc(Nc2ncnc3cc(OCCOC)c(OCCO)cc23)c1` — outcome as called in the assay?
## Output active

## Input Hi team, can someone confirm the assay call for `CC(C)C[C@H](NC(=O)[C@@H](NC(=O)c1cccc(-c2ccccc2)n1)[C@@H](C)O)B(O)O` ?
## Output active

## Input // outcome(item) with item = `C[C@H]1COc2c(N3CCN(C)CC3)c(F)cc3c(=O)c(C(=O)O)cn1c23`
## Output inactive

## Input Given `O=C(NC1CC1)c1cccc(-c2ccc3c(NC(=O)C4CC4)n[nH]c3c2)c1` , state the outcome it received in this test.
## Output active

## Input Assay outcome for Cc1ccccc1C(=O)Nc1ccc(C(=O)N2CCCC(O)c3cc(Cl)ccc32)c(C)c1 (configuration not stated) : what was it?
## Output inactive

## Input Test call, this compound: `COC(=O)[C@@H]1CC2=CC(=O)CC[C@]2(C)[C@@]23O[C@@H]2C[C@@]2(C)[C@H](CC[C@@]24CCC(=O)O4)[C@@H]13`
## Output inactive

## Input How did this test come out for CC1=C(C(=O)Nc2cc3cn[nH]c3cc2F)C(c2ccc(Cl)cc2F)N=C(c2ccnc(Cl)c2)N1 (configuration not stated) ?
## Output active

## Input Fill in: this test's call for `CC(=O)N1CCN(c2ccc(OCc3nn(C)c(C)c3-c3cccc4c(CCCOc5cccc6ccccc56)c(C(=O)O)n(Cc5cccnc5)c34)cc2)CC1` is ___
## Output active

## Input How was `CC(=O)O[C@H]1C[C@@H]2CC[C@H]3[C@H]4C[C@H]([N+]5(C)CCCCC5)[C@@H](OC(C)=O)[C@@]4(C)CC[C@@H]3[C@@]2(C)C[C@H]1[N+]1(C)CCCCC1` classified in this test?
## Output inactive

## Input Hey, what did the test say about `COc1cc(C(=O)NC2CCN(C)CC2)ccc1Nc1ncc2c(n1)N(C1CCCC1)CCC(=O)N2C(C)C` ?
## Output active

## Input Please share the test call associated with `C[C@@H](Cc1cc2c(c(C(N)=O)c1)N(CCCO)CC2)NCCOc1ccccc1OCC(F)(F)F` .
## Output inactive

## Input So what was the verdict on `NC(=O)c1ncn([C@@H]2O[C@H](CO)[C@@H](O)[C@@H]2O)c1N` in this test?
## Output inactive

## Input Dear colleague, could you share the recorded outcome for `CON=C(C(=O)N[C@@H]1C(=O)N2C(C(=O)O)=C(Cn3ccc(=N)n3CCO)CS[C@H]12)c1csc(N)n1` when you have a moment?
## Output inactive

## Input // param item: `CCC(C=C[C@@H]1OC(=O)C=C[C@H]1C)=C[C@H](C)CC=CC(C)=C[C@@H](C)C(=O)[C@@H](C)[C@H](O)[C@@H](C)CC(C)=CC(=O)O` ; yields the recorded call
## Output active

###

- experiment summary: Quantitative High-Throughput drug screen in 47 multiple myeloma cell lines against the NCATS MIPE library collection: MOLP8_DSMZ cell viability assay (AID 1918977); also: nearly all actives have a fitted effect of over 45% in size; also: potency is read from the fitted curve at half-maximal effect
- experimental parameters: MOLP8 myeloma viability, CellTiter-Glo ATP luminescence, 48 h; series mostly up to 45.8 µM
Records with an inconclusive call do not appear. Activity calls are given as the source filed them. The call rests on the fitted dose curve; in most records, active means well fitted cell-killing curve with a large enough effect; inconclusive means small, poorly fitted or top-dose-only effect, or effect the other way; inactive means no such curve, though single readings can be large or run the other way.
parameter measured: Potency

As a guide, the following entries are already answered.
| molecule | value reported |
| --- | --- |
| O=C1c2c(O)cccc2[C@@H]([C@@H]2O[C@H](CO)[C@@H](O)[C@H](O)[C@H]2O)c2cc(CO)cc(O)c21 | inactive |
| CC(=O)NCC(=O)N1[C@H]2CC[C@H]1c1cc(Nc3ncc(C(F)(F)F)c(NC4CCC4)n3)ccc12 | 2640 nM (active) |
| CN[C@H]1[C@@H](O)[C@@H]2O[C@@H]3O[C@H](C)CC(=O)[C@]3(O)O[C@@H]2[C@@H](NC)[C@H]1O | 11800 nM (active) |
| CCC(C(=O)O)C1CCC(C)C(C(C)C(O)C(C)C(=O)C(CC)C2OC3(C=CC(O)[C@@]4(CC[C@](C)(C5CC[C@@](O)(CC)C(C)O5)O4)O3)C(C)CC2C)O1 (some centres undefined) | 743 nM (active) |
| Cn1cc(C[C@@H](N)C(=O)O)c2ccccc21 | 115 nM (active) |

Value sought for every listed molecule: Potency.
1. Nc1ccn(C[C@@H](CO)OCP(=O)(O)O)c(=O)n1
2. Cc1ncc(-c2ccnc(Nc3ccc(S(C)(=O)=O)cc3)n2)n1C(C)C
3. O=C(CCCCCCC(=O)Nc1cccnc1)NO
4. C[C@@H]1CC[C@@]2(OC1)OC1CC3C4CC=C5CC(O)CCC5(C)C4CCC3(C)C1[C@@H]2C (some centres undefined)

## Output
1: inactive; 2: 1320 nM (active); 3: 3320 nM (active); 4: inactive

###

- experiment summary: P-glycoprotein substrates identified in KB-8-5-11 adenocarcinoma cell line, qHTS therapeutic library screen (AID 1346987); also: nearly all actives have a fitted effect of over 65% in size
- experimental parameters: KB-8-5-11 (P-gp overexpressing) viability, CellTiter-Glo, 72 h; series mostly up to 44.5 µM
Records with an inconclusive call do not appear. Calls of active or inactive are those of the source. The call rests on the fitted dose curve; in most records, active means well fitted inhibition curve with a large enough effect; inconclusive means small, poorly fitted or top-dose-only effect; inactive means flat fitted curve, though single readings scatter.
Hi! Could you answer with just one of these? true (active), false (inactive)

Worked examples follow.
| compound | classification |
| --- | --- |
| C=C[C@@H]1CN2CCC1C[C@H]2[C@H](O)c1ccnc2ccc(OC)cc12 (some centres undefined) | false |
| CC(C)Oc1ccc(C(=O)N[C@H](CNC(=O)CN(C)C)Cc2ccc(-c3cn4cccc([C@H](C)O)c4n3)cc2)cc1Cl | true |
| CCc1cc(C(C)=NOCc2ccc(C3CCCCC3)c(C(F)(F)F)c2)ccc1CN1CC(C(=O)O)C1 | false |

Please examine the following record next.
## Input Status in this test for `CC(C=CC=C(C)C=CC1=C(C)CCCC1(C)C)=CC=CC=C(C)C=CC=C(C)C=CC1=C(C)CCCC1(C)C` ?
## Output false

###

- experiment summary: Quantitative High-Throughput drug screen in 47 multiple myeloma cell lines against the NCATS MIPE library collection: XG1_PLB cell viability assay (AID 1919866); also: potency is read from the fitted curve at half-maximal effect; nearly all actives have a fitted effect of over 35% in size
- experimental parameters: CellTiter-Glo ATP, 48 h; series mostly up to 45.8 µM
Inconclusive results are not listed. Activity calls are given as the source filed them. Calls follow the shape of the dose curve; as a rule, active = well fitted cell-killing curve with a large enough effect; inconclusive = small, poorly fitted or top-dose-only effect, or effect the other way; inactive = no such curve, though single readings can be large or run the other way.
Hi there, use one of these labels in your reply, thanks! 1 for active, -1 for inactive

## Input Test call, this compound: `O=C(C=Cc1ccc(CN(CCO)CCc2c[nH]c3ccccc23)cc1)NO`
## Output 1

## Input Please share the test call associated with CC(C)C[C@H](NC(=O)CNC(=O)c1cc(Cl)ccc1Cl)B1OC(=O)CC(CC(=O)O)(C(=O)O)O1 (stereo partly drawn) .
## Output 1

## Input How was `CCOC(=O)N1CCN([N+]([O-])=NOc2ccc([N+](=O)[O-])cc2[N+](=O)[O-])CC1` classified in this test?
## Output 1

###

- experiment summary: Quantitative High-Throughput drug screen in 47 multiple myeloma cell lines against the NCATS MIPE library collection: U266_ATCC cell viability assay (AID 1919864); also: nearly all actives have a fitted effect of over 35% in size
- experimental parameters: U266 myeloma viability, CellTiter-Glo ATP luminescence, 48 h; series mostly up to 45.8 µM
Inconclusive results are not listed. Calls of active or inactive are those of the source. Calls follow the shape of the dose curve; as a rule, active = well fitted cell-killing curve with a large enough effect; inconclusive = small, poorly fitted or top-dose-only effect, or effect the other way; inactive = no such curve, though single readings can be large or run the other way.
I would appreciate it if you answered using one of these outcomes: active, inactive

Please review the following examples before continuing.
| molecule | classification |
| --- | --- |
| Cc1noc(-c2ccc(CSCCC(=O)O)cc2)c1NC(=O)OC(C)c1ccccc1Cl (stereo not drawn) | inactive |
| C=CC(=O)Nc1cccc(Nc2nc(NC3CCC(N(C)C)CC3)nc3c2ncn3C(C)C)c1 (stereo not drawn) | active |
| CCCCCCCCCCCC(CC1OC(=O)C1CCCCCC)OC(=O)C(CC(C)C)NC=O (stereo not drawn) | inactive |
| COc1cc(C(=O)NC2CCN(C)CC2)ccc1Nc1ncc2c(n1)N(C1CCCC1)CCC(=O)N2C(C)C | active |
| C[C@H]1COc2c(N3CCN(C)CC3)c(F)cc3c(=O)c(C(=O)O)cn1c23 | inactive |

## Input Recorded call for `CCOC(=O)[C@@H](N)Cc1ccc(-c2cc(O[C@H](c3ccc(Cl)cc3-n3ccc(C)n3)C(F)(F)F)nc(N)n2)cc1` ?
## Output active

## Input Called result for `Oc1cc(-c2nc(-c3ccccc3)[nH]c2-c2ccncc2)ccc1Cl`
## Output active

## Input Please share the test call associated with `C=CCNC1=C2C[C@@H](C)C[C@H](OC)[C@@H](O)[C@@H](C)C=C(C)[C@H](OC(N)=O)[C@@H](OC)C=CC=C(C)C(=O)NC(=CC1=O)C2=O` .
## Output active
